Experiment: Pharmacokinetic evaluation in mice (IV and PO)
Type: in vivo, female Balb/c mice
Details: female, Balb/c, mouse, plasma; PO 1 mg/kg
Procedure: Experiment process: 0.04 mg/mL of a clarified solution of the test compound in 5% DMSO/10% Solutol solution/85% water was injected into female Balb/c mice (overnight fasting, 7-9 weeks of age) via tail vein, with dosage of 0.2 mg/kg. […] Plasma concentrations were detected by LC-MS/MS, and relevant pharmacokinetic parameters were calculated using WinNonlin™ Version 6.3 (Pharsight, Mountain View, CA) pharmacokinetic software with a non-compartmental model linear logarithmic trapezoid method.
Please provide measured AUC(0-inf) for the entries that follow.
The reply should be a number in µM·h, with the unit left off.

Measured AUC(0-inf) of CCn1c(CO)nn(-c2cc(O[C@@H](C)C(F)(F)F)c(/C(F)=C/c3cccnc3OC)cc2F)c1=O [Compound 6] : 9.08

Measured AUC(0-inf) of CCn1c(CO)nn(-c2cc(O[C@@H](C)C(F)(F)F)c(/C(F)=C/c3cccnc3C(F)F)cc2F)c1=O [Compound 39] : 10.6

Measured AUC(0-inf) of CCn1c(CO)nn(-c2cc(O[C@@H](C)C(F)(F)F)c(/C(F)=C/c3cccnc3Cl)cc2F)c1=O [Compound 26] : 13

Measured AUC(0-inf) of CCn1c(CO)nn(-c2cc(O[C@@H](C)C(F)(F)F)c(/C(F)=C/c3ncccc3Cl)cc2F)c1=O [Compound 5] : 7.21

---

Test system: MDR1 (P-glycoprotein)
Test: Permeability evaluation on MDR1-MDCK II cell line
Settings: dog, MDCK-MDR1, pH 7.4
Quantity Name: efflux ratio at 150 min, 2 μM
Just the number, please.

Measured efflux ratio at 150 min, 2 μM of CCn1c(CO)nn(-c2cc(O[C@@H](C)C(F)(F)F)c(/C(F)=C/c3cnccc3Cl)cc2F)c1=O [Compound 28] : 1.24

Measured efflux ratio at 150 min, 2 μM of CCn1c(CO)nn(-c2cc(O[C@@H](C)C(F)(F)F)c(/C(F)=C/c3cccnc3C(F)F)cc2F)c1=O [Compound 39] : 1.37

Measured efflux ratio at 150 min, 2 μM of CCn1c(CO)nn(-c2cc(O[C@@H](C)C(F)(F)F)c(/C(F)=C/c3ncccc3Cl)cc2F)c1=O [Compound 5] : 1.37

Measured efflux ratio at 150 min, 2 μM of CCn1c(CO)nn(-c2cc(O[C@@H](C)C(F)(F)F)c(/C(F)=C/c3cccnc3Cl)cc2F)c1=O [Compound 26] : 0.9

Measured efflux ratio at 150 min, 2 μM of CCn1c(CO)nn(-c2cc(O[C@@H](C)C(F)(F)F)c(/C(F)=C/c3cccnc3OC)cc2F)c1=O [Compound 6] : 0.95

---

Please provide measured Tmax for the entries that follow.
Assay: Pharmacokinetic evaluation in mice (IV and PO)
Format: in vivo, female Balb/c mice
Details: female, Balb/c, mouse, plasma; PO 1 mg/kg
The reply should be a number in h, with the unit left off.

Measured Tmax of CCn1c(CO)nn(-c2cc(O[C@@H](C)C(F)(F)F)c(/C(F)=C/c3cccnc3C(F)F)cc2F)c1=O [Compound 39] : 1.5

Measured Tmax of CCn1c(CO)nn(-c2cc(O[C@@H](C)C(F)(F)F)c(/C(F)=C/c3cccnc3Cl)cc2F)c1=O [Compound 26] : 1

Measured Tmax of CCn1c(CO)nn(-c2cc(O[C@@H](C)C(F)(F)F)c(/C(F)=C/c3ncccc3Cl)cc2F)c1=O [Compound 5] : 2

Measured Tmax of CCn1c(CO)nn(-c2cc(O[C@@H](C)C(F)(F)F)c(/C(F)=C/c3cccnc3OC)cc2F)c1=O [Compound 6] : 2
